Test readout: ready biodegradability

Smiles input: C=CCO
Result: readily biodegradable
//
Smiles input: CCCCCCCCCCCCc1ccc(N)cc1
Result: readily biodegradable
//
Smiles input: COCCOC(C)=O
Result: readily biodegradable

----------
In this section, each of the molecules is paired with its reported boiling point.

Smiles input: c1ccc(C(=C(c2ccccc2)c2ccccc2)c2ccccc2)cc1
Output unit: °C
boiling point: 420

Smiles input: CCC(CC)C(CC)CC
Output unit: °C
boiling point: 164

Smiles input: CCc1ccsc1
Output unit: °C
boiling point: 136

Smiles input: CCOC(=O)N1CCN(C(=O)OCC)CC1
Output unit: °C
boiling point: 315

Smiles input: COC(=O)c1ccc(C)cc1
Output unit: °C
boiling point: 220

Smiles input: COc1cccc(N)c1
Output unit: °C
boiling point: 251

Smiles input: C/C=C(\C)C(=O)O
Output unit: °C
boiling point: 198

Smiles input: CCC(C)(C)CC(C)C
Output unit: °C
boiling point: 131

Smiles input: BrCBr
Output unit: °C
boiling point: 97

----------
Compound: OCCO
log10 vapour pressure (mmHg): -1.04
--
Compound: FC(F)OC(C(F)(F)F)C(F)(F)F
log10 vapour pressure (mmHg): 2.59
--
Compound: Clc1cc(Cl)c2c(Cl)c(Cl)cc(Cl)c2c1Cl
log10 vapour pressure (mmHg): -6.46
--
Compound: CN(C)N=O
log10 vapour pressure (mmHg): 0.431
--
Compound: O=C1C=Cc2cccc3cccc1c23
log10 vapour pressure (mmHg): -5.17
--
Compound: CCCCCCOC(=O)c1ccccc1C(=O)OCCCCCC
log10 vapour pressure (mmHg): -4.85
--
Compound: CN(C)C(=O)Cl
log10 vapour pressure (mmHg): 0.29
--
Compound: Nc1ccccc1Cl
log10 vapour pressure (mmHg): -0.69
--
Compound: C=CC(C)CCC (centres undefined)
log10 vapour pressure (mmHg): 1.92

----------
Molecule: CCOC(=O)CCC(=O)OCC
boiling point: 218 °C
//
Molecule: CC=CC(C)=O
boiling point: 122 °C
//
Molecule: N#Cc1cccc(C=O)c1
boiling point: 210 °C
//
Molecule: CCCCC(=O)c1ccccc1
boiling point: 245 °C
//
Molecule: Cc1ccc(Cl)cc1C
boiling point: 194 °C
//
Molecule: c1cocn1
boiling point: 69.5 °C
//
Molecule: O=C(Cl)c1ccccc1C(=O)Cl
boiling point: 281 °C
//
Molecule: O=C(O)CCl
boiling point: 189 °C
//
Molecule: CC(=O)CCC(C)C
boiling point: 144 °C
//
Molecule: ClC(Cl)C(Cl)C(Cl)Cl
boiling point: 199 °C
//
Molecule: CCC(C)Br (stereo not drawn)
boiling point: 91.2 °C
//
Molecule: CCOC(=O)C=Cc1ccccc1
boiling point: 271 °C
//
Molecule: N#Cc1c(Cl)cccc1Cl
boiling point: 270 °C
//
Molecule: CC(=O)CC(=O)c1ccccc1
boiling point: 262 °C
//
Molecule: CCC(=O)CCl
boiling point: 138 °C
//
Molecule: CCOS(=O)(=O)C(F)(F)F
boiling point: 115 °C
//
Molecule: CSSC
boiling point: 110 °C
//
Molecule: COc1ccc(CC(C)(C)C)cc1
boiling point: 238 °C

----------
melting point by entry:
Test readout: melting point

Molecule: COc1cc([C@@H]2c3cc4c(cc3C(O[C@@H]3O[C@@H]5COC(c6cccs6)O[C@H]5[C@H](O)[C@H]3O)C3COC(=O)[C@@H]32)OCO4)cc(OC)c1O (some centres undefined)
Result: 244 °C
--
Molecule: NC(=O)c1cccs1
Result: 182 °C
--
Molecule: COc1ccccc1Br
Result: 2.5 °C
--
Molecule: NNC(=O)c1cccc(Br)c1
Result: 158 °C
--
Molecule: COc1ccc(Cl)c(N)c1
Result: 27 °C
--
Molecule: COP(=S)(OC)Oc1cc(Cl)c(Br)cc1Cl
Result: 53.5 °C
--
Molecule: CCCCCCC#CC(=O)O
Result: -8 °C
--
Molecule: C1=Cc2cc3ccc(cc4nc(cc5ccc(cc1n2)[nH]5)C=C4)[nH]3
Result: 360 °C
--
Molecule: Cc1csc(N)n1
Result: 45.5 °C
--
Molecule: O=[N+]([O-])CCc1ccccc1
Result: -23 °C
--
Molecule: CCCCCCC(C)O (racemic)
Result: 3.5 °C
--
Molecule: COc1ccc(C)c([N+](=O)[O-])c1
Result: 17 °C
--
Molecule: N=C(N)NS(=O)(=O)c1ccc(N)cc1
Result: 192 °C
--
Molecule: CCS(=O)(=O)c1ccccc1
Result: 42 °C
--
Molecule: O=C(OCC(O)CO)c1ccccc1Nc1ccnc2cc(Cl)ccc12 (centres undefined)
Result: 170 °C
--
Molecule: O=C(O)CS(=O)(=O)CC(=O)O
Result: 182 °C
--
Molecule: COc1cccc(C)c1C
Result: 29 °C
--
Molecule: CCCCc1cc(C)ccc1O
Result: 19 °C
--
Molecule: COC(=O)c1ccc2ccccc2c1
Result: 77 °C
--
Molecule: O=C(O)COc1nn(Cc2ccccc2)c2ccccc12
Result: 160 °C
--
Molecule: Clc1cncc(Cl)n1
Result: 56.5 °C
--
Molecule: C1=CCCC=CCCC=CCC1
Result: -9.25 °C
--
Molecule: OCC(O)COc1ccc(Cl)cc1 (centres undefined)
Result: 78 °C
--
Molecule: Nc1ncnc2c1ncn2[C@]1(CO)O[C@H](CO)[C@@H](O)[C@H]1O
Result: 212 °C
--
Molecule: Cc1ccc(C[N+](=O)[O-])cc1
Result: 11.5 °C
--
Molecule: CC(C)(C1CCCCC1)C1CCCCC1
Result: 15.6 °C
--
Molecule: COC(=O)/C=C(\C)OP(=O)(OC)OC
Result: 21 °C
--
Molecule: Cc1ccc(N(CC2=NCCN2)c2cccc(O)c2)cc1
Result: 174 °C
--
Molecule: CS/C(C)=N/OC(=O)N(C)SN(C)C(=O)O/N=C(\C)SC
Result: 173 °C

----------
Listed here are compounds together with their documented boiling point.
Test readout: boiling point (°C)

Compound: CCC1CCCO1 (configuration not stated)
Output unit: °C
Readout number: 109

Compound: COc1cccc2cccnc12
Output unit: °C
Readout number: 283

Compound: CC(Br)(Br)CBr
Output unit: °C
Readout number: 190

Compound: Cc1cc(C)cc(Br)c1
Output unit: °C
Readout number: 204

Compound: Cc1ccc(C)n1C
Output unit: °C
Readout number: 171

Compound: CCCCCCCC(=O)CC
Output unit: °C
Readout number: 203

Compound: FC(F)(Br)C(F)(F)C(F)(F)C(F)(F)C(F)(F)C(F)(F)C(F)(F)C(F)(F)Br
Output unit: °C
Readout number: 180

Compound: CC(C)(C#N)C#N
Output unit: °C
Readout number: 170

Compound: C1CC2CCCC2C1 (configuration not stated)
Output unit: °C
Readout number: 139

Compound: Fc1cccc(N=C=S)c1
Output unit: °C
Readout number: 227

Compound: C=CC#CC
Output unit: °C
Readout number: 59.5

Compound: O=Nc1ccc(Nc2ccccc2)cc1
Output unit: °C
Readout number: 292

Compound: FC(Cl)=C(Cl)C(F)(F)F
Output unit: °C
Readout number: 47.3

Compound: FCF
Output unit: °C
Readout number: -51.6

Compound: C#Cc1ccc(C)cc1
Output unit: °C
Readout number: 169

Compound: CCCCCCCCCCCCCCCCCCCCCCCCCCCCCCCCCCC
Output unit: °C
Readout number: 490

Compound: CCC=CCC(=O)O
Output unit: °C
Readout number: 208

----------
Below, each entry is listed with its recorded melting point.

Compound: O[C@@H]1[C@@H](O)[C@@H]2OC[C@@H](O2)[C@H]1O
melting point: 183 °C

Compound: C=CC[Si](Cl)(Cl)Cl
melting point: 35 °C

Compound: O=[N+]([O-])c1ccc(Cc2ccncc2)cc1
melting point: 71 °C

Compound: C#CCN1C(=O)CN=C(c2ccccc2)c2cc(Cl)ccc21
melting point: 141 °C

Compound: Cc1ccc2c(Cl)cc(Cl)c(O)c2n1
melting point: 114 °C

Compound: Oc1c(Cl)c(Cl)c(Cl)c(Cl)c1Cl
melting point: 174 °C

Compound: CC(=O)C1CCc2ccccc2C1=O (stereo not drawn)
melting point: 56 °C

Compound: CC(C)(C)CC(C)(C)S
melting point: -74 °C

Compound: Fc1ccccc1I
melting point: -41.5 °C

Compound: CCCCCCCC/C=C\CCCCCCCC(=O)OC
melting point: -19.9 °C

Compound: N#CC(O)c1ccccc1 (stereo not drawn)
melting point: -10 °C

Compound: CCCCCCCCCCCCCCCCC(=O)OCC
melting point: 28 °C

Compound: COC(=O)c1cc(Cl)ccc1[N+](=O)[O-]
melting point: 48.5 °C

Compound: CC1=CC(=O)NS(=O)(=O)O1
melting point: 123 °C

Compound: NC(=O)NCc1ccccc1
melting point: 148 °C

Compound: CO[C@H]1C=CC2=CCN3CCC4=C(CC(=O)OC4)[C@]23C1
melting point: 99.5 °C

Compound: Cc1ccc2ccc3ccc(C)cc3c2c1
melting point: 145 °C

Compound: CCC1(c2ccc(N)cc2)CCC(=O)NC1=O (stereo not drawn)
melting point: 150 °C

Compound: CCCCCCCCCCCCCC(CCCCCCCCCCCC)CCCCCCCCCCCC
melting point: 13.7 °C

Compound: CCCCCCCCCCCCCCCC[n+]1ccccc1.[Br-]
melting point: 63 °C

Compound: Nc1ccc(Nc2ccc([N+](=O)[O-])cc2[N+](=O)[O-])cc1
melting point: 188 °C

Compound: Nc1nc2c(ncn2COCCO)c(=O)[nH]1
melting point: 255 °C

Compound: O=[N+]([O-])c1cc(C(F)(F)F)c(Cl)c([N+](=O)[O-])c1Nc1ncc(C(F)(F)F)cc1Cl
melting point: 113 °C

Compound: Nc1nc(N)nc(-c2ccccc2)n1
melting point: 226 °C

Compound: c1ccc2sc(SN(C3CCCCC3)C3CCCCC3)nc2c1
melting point: 99.8 °C

Compound: Cc1cccc(-c2cccc(C)c2)c1
melting point: 9 °C

Compound: O=C1c2ccccc2C(=O)C1c1ccc(Br)cc1
melting point: 138 °C

Compound: COc1cc(C)oc(=O)c1
melting point: 86 °C
